The reported measurements were obtained from PubChem BioAssay (NCI).

- Test system: SF-539 CNS
- experiment_summary: NCI-60 one-dose screen, 48 h (100 = growth as untreated, 0 = no growth, -100 = all killed)
- condition_notes: 10 µM unless noted
About 83,000 compounds went through this panel and 20% of them were active in at least one assay; those are over-represented in the sample as a whole.
// reported growth for each item listed
measured_metric: growth (%)

>>> recorded_result("COc1ccc(CCl)c(C)c1OC")
99.4
>>> recorded_result("CCOC(=O)c1ccncc1")
108
>>> recorded_result("CCc1ccc(OC(=O)CCl)cc1")
99
>>> recorded_result("Cn1c(-c2ccccc2)cc(=O)cc1-c1ccccc1")
111
>>> recorded_result("Nc1nc(=S)c2[nH]cnc2[nH]1")
7.88
>>> recorded_result("O=C1C2=C(Nc3cc(Cl)ccc3N2)OC1c1c[nH]c2ccc(COc3ccccc3)cc12 (configuration not stated)")
53.8
>>> recorded_result("CC1(C)CC(=O)NC1=O")
93.5
>>> recorded_result("CCCCNC(=O)c1ccccc1C")
107
>>> recorded_result("CCCC(=O)Oc1ccc(CC)cc1")
101
>>> recorded_result("Cc1cc(=NO)cc(C)n1O")
104
>>> recorded_result("Cc1c(Cl)c(C)c(Cc2c(C)c(Cl)c(C)c(Cl)c2O)c(O)c1Cl")
15.7
>>> recorded_result("O=C(O)C#Cc1ccc(Cl)cc1")
102

----------
- Tested on: HCT-116 colon
- experiment_summary: NCI-60 one-dose screen, 48 h (100 = growth as untreated, 0 = no growth, -100 = all killed)
- condition_notes: 10 µM unless noted
This is part of a sample that, as a whole, favours compounds with a hit. Of some 83,000 tested, about 20% had one in any assay.
// reported growth for each item listed
measured_metric: growth (%)

>>> recorded_result("O=C(c1ccccc1)C1(Br)CCCCC1")
104
>>> recorded_result("CCC(C)NC(=O)c1ccccc1C (stereo not drawn)")
98.3
>>> recorded_result("CC(C)(C)OC(=O)CC1(O)CCCCC1")
102
>>> recorded_result("CCCCCCCCCCCCCCCCC(=O)O")
101
>>> recorded_result("C/C=C/C(=O)OCCCCCCCCCCCC")
88.5
>>> recorded_result("O=C(c1ccncc1)c1c(Cc2ccccc2)ccc2ccccc12")
82
>>> recorded_result("COC(=O)c1nc(N)nc(C(=O)OC)c1C(=O)c1ccc(F)cc1")
110
>>> recorded_result("Cc1cnc(N)s1")
95.8
>>> recorded_result("O=C1C=CC(=O)N1Cc1ccco1")
52.5
>>> recorded_result("CC(=O)Nc1cscc1NC(C)=O")
103
>>> recorded_result("Nc1c(Cl)cc2c(c1Br)C(=O)c1ccccc1C2=O")
96.7
>>> recorded_result("Cc1cccc(Cl)c1N")
113
>>> recorded_result("COc1ccc(CCN=Cc2ccc(Cl)cc2)cc1OC")
104
>>> recorded_result("CCN(CC)C(CC(=O)c1ccccc1)C(=O)c1ccccc1 (stereo not drawn)")
92
>>> recorded_result("O=P(O)(O)OC1C(OP(=O)(O)O)C(OP(=O)(O)O)C(OP(=O)(O)O)C(OP(=O)(O)O)C1OP(=O)(O)O.[Cu+2] (stereo not drawn)")
96.6
>>> recorded_result("CCOC(=O)c1ccncc1")
107
>>> recorded_result("COC(=O)c1nc(=S)[nH]c(C(=O)OC)c1C(=O)c1ccccc1")
126
>>> recorded_result("CCc1ccc(OC(=O)CCl)cc1")
102
>>> recorded_result("O=[N+]([O-])c1cccc(N=Cc2ccccc2)c1")
103
>>> recorded_result("CC(NC(=O)CCl)c1ccccc1 (stereo not drawn)")
97.6
>>> recorded_result("CCOP(C)(=O)/C(Cc1ccc(OC)c(OC)c1)=N\\O (stereo not drawn)")
103
>>> recorded_result("C/C(=C\\c1ccccc1)C(O)C(=O)c1nc2ccc([N+](=O)[O-])cc2[nH]c1=O (stereo not drawn)")
91.4
>>> recorded_result("CCOP(=O)(OCC)/C(C#N)=C/c1c(C)[nH]c2ccccc12")
101
>>> recorded_result("CC(=O)Oc1cc(C)c(OC(C)=O)c(C)c1C")
112
>>> recorded_result("C/C(CC(C)C)=N/NC(N)=S")
11.8
>>> recorded_result("Cc1cc(-c2ccc(N=Nc3c(C)nn(-c4ccc(S(=O)(=O)O)cc4)c3O)c(C)c2)ccc1N=Nc1ccc(O)c(C(=O)O)c1")
99.8
>>> recorded_result("COc1cc2c(cc1O)C(=O)CCCC2")
99.2
>>> recorded_result("COc1ccc(COC=O)cc1")
99.1
>>> recorded_result("CC1NC(C)c2ccc3ccccc3c2O1 (stereo not drawn)")
102
>>> recorded_result("NNC(=O)Nc1ccccc1")
101
>>> recorded_result("CCOC(=O)CN1CCC(C(=O)OCC)CC1")
98.1
>>> recorded_result("O=[N+]([O-])c1ccc(N2CCN=N2)cc1")
81.7
>>> recorded_result("CCN(C)c1ccccc1")
106
>>> recorded_result("COc1ccc(CCNC(=S)NN)cc1OC")
84.2
>>> recorded_result("COc1cc2oc3cc(=O)cc4oc(-c5ccccc5)cc(c2c2c1CCC(c1ccccc1)O2)c43 (stereo not drawn)")
59.7
>>> recorded_result("COc1ccc(CCl)c(C)c1OC")
99.6
>>> recorded_result("COc1ccc(/C=N/NC(N)=S)cc1")
89.3
>>> recorded_result("CCOC(=O)c1ccc(N2C(=O)C(Cl)(c3ccccc3)C2c2ccco2)cc1 (stereo not drawn)")
54
